Consider the following molecules; for each one, report its Emax.
Biological target: human IL-23R (Homo sapiens)
Experiment: biochemical
Settings: read-out: % displacement (hIL-23R NIuc)

# input State its Emax on human IL-23R (Homo sapiens): CNC(=O)[C@H](Cc1cccnc1)NC(=O)[C@H](CCN)NC(=O)[C@@H]1CCC(=O)N[C@H]2CCCCNC(=O)CC[C@H](NC(=O)[C@H](CCC(N)=O)NC(=O)[C@H](Cc3c[nH]c4ccccc34)NC(=O)CNC2=O)C(=O)N[C@@H](Cc2ccc(OCCN)cc2)C(=O)N[C@@H](Cc2ccc3ccccc3c2)C(=O)N[C@@](C)(CC(C)C)C(=O)N1 [Compound 104]
# output 101%

# input Further, for CNC(=O)[C@H](Cc1cccnc1)NC(=O)[C@H](CCN)NC(=O)[C@@H]1CCCNC(=O)CC[C@@H]2NC(=O)CC[C@H](NC(=O)[C@H](CCC(N)=O)NC(=O)[C@H](Cc3c[nH]c4ccccc34)NC(=O)[C@H]([C@@H](C)O)NC2=O)C(=O)N[C@@H](Cc2ccc(OCCN)cc2)C(=O)N[C@@H](Cc2ccc3ccccc3c2)C(=O)N[C@@](C)(CC(C)C)C(=O)N1 [Compound 40] ?
# output 100%

# input # iterate: CC(C)[C@@H]1NC(=O)[C@H]([C@@H](C)O)NC(=O)[C@@H]2CCCCNC(=O)CC[C@@H]3NC(=O)[C@H](CCCCNC(=O)[C@H](Cc4cccnc4)NC(=O)[C@H](CCN)NC3=O)NC(=O)[C@H](Cc3ccc4ccccc4c3)NC(=O)[C@H](Cc3ccc(OCCN)cc3)NC(=O)[C@H](CCC(=O)N2)NC(=O)[C@H](CCC(N)=O)NC(=O)[C@H](Cc2c[nH]c3ccccc23)NC1=O [Compound 77]
# output 97%

# input Here is the next molecule: CC(C)C[C@]1(C)NC(=O)[C@H](Cc2ccc3ccccc3c2)NC(=O)[C@H](Cc2ccc(OCCN)cc2)NC(=O)[C@@H]2CCC(=O)N[C@H](CCCCCNC(=O)CC[C@@H](C(=O)N[C@@H](CCN)C(=O)N[C@@H](Cc3cccnc3)C(N)=O)NC1=O)C(=O)N[C@@H]([C@@H](C)O)C(=O)N[C@@H](C(C)C)C(=O)N[C@@H](Cc1c[nH]c3ccccc13)C(=O)N[C@@H](CCC(N)=O)C(=O)N2 [Compound 5]
# output 98%

# input Okay, and CC[C@H](C)[C@@H]1NC(=O)[C@@H]2CCCCNC(=O)CC[C@@H](C(=O)NC3(C(=O)N[C@@H](Cc4cccnc4)C(=O)NC)CCNCC3)NC(=O)[C@](C)(CC(C)C)NC(=O)[C@H](Cc3ccc4ccccc4c3)NC(=O)[C@H](Cc3ccc(OCCN)cc3)NC(=O)[C@H](CCC(=O)N2)NC(=O)[C@H](CCC(N)=O)NC(=O)[C@H](Cc2c[nH]c3ccccc23)NC(=O)[C@H](C(C)C)NC1=O [Compound 62] ?
# output 99%

# input Thanks! And CC[C@H](C)[C@@H]1NC(=O)[C@@H]2CCCCNC(=O)CC[C@@H](C(=O)N[C@@H](CCN)C(=O)N[C@@H](Cc3cccnc3)C(=O)NC)NC(=O)[C@](C)(CC(C)C)NC(=O)[C@H](Cc3ccc4ccccc4c3)NC(=O)[C@H](Cc3ccc(OCc4ccccc4)cc3)NC(=O)[C@H](CCC(=O)N2)NC(=O)[C@H](CCC(N)=O)NC(=O)[C@H](Cc2c[nH]c3ccccc23)NC(=O)[C@H](C(C)C)NC1=O [Compound 34] ?
# output 100%

# input Another molecule to check: CNC(=O)[C@H](Cc1cccnc1)NC(=O)[C@H](CCN)NC(=O)[C@@H]1CCC(=O)NCC[C@@H]2NC(=O)CC[C@H](NC(=O)[C@H](CCC(N)=O)NC(=O)[C@H](Cc3c[nH]c4ccccc34)NC(=O)[C@H]([C@@H](C)O)NC2=O)C(=O)N[C@@H](Cc2ccc(OCCN)cc2)C(=O)N[C@@H](Cc2ccc3ccccc3c2)C(=O)N[C@@](C)(CC(C)C)C(=O)N1 [Compound 37]
# output 99%

====

Assay: Peptide stability in simulated intestinal fluid (SIF)
Type: in vitro ADME
Conditions: pig, SAR tables, % peptide remaining, 37 °C, porcine pancreatin, pH 6.8, 4 h, read-out: SIF (% after 4 h)
recorded.endpoint: remaining at 4 h, 10 µM (%)
Write it as a number; the unit % goes unstated.

# input Which remaining at 4 h, 10 µM value belongs to CC[C@H](C)[C@@H]1NC(=O)[C@@H]2CCCCNC(=O)CC[C@@H](C(=O)NCCCCC(=O)N[C@@H](Cc3cccnc3)C(=O)NC)NC(=O)[C@](C)(CC(C)C)NC(=O)[C@H](Cc3ccc4ccccc4c3)NC(=O)[C@H](Cc3ccc(OCCN)cc3)NC(=O)[C@H](CCC(=O)N2)NC(=O)[C@H](CCC(N)=O)NC(=O)[C@H](Cc2c[nH]c3ccccc23)NC(=O)[C@H](C(C)C)NC1=O ?
# output 86

# input Now the same for CC[C@H](C)[C@@H]1NC(=O)[C@@H]2CCCCNC(=O)CC[C@@H](C(=O)N3CCNC3C(=O)N[C@@H](Cc3cccnc3)C(=O)NC)NC(=O)[C@](C)(CC(C)C)NC(=O)[C@H](Cc3ccc4ccccc4c3)NC(=O)[C@H](Cc3ccc(OCCN)cc3)NC(=O)[C@H](CCC(=O)N2)NC(=O)[C@H](CCC(N)=O)NC(=O)[C@H](Cc2c[nH]c3ccccc23)NC(=O)[C@H](C(C)C)NC1=O (stereo partly drawn)
# output 110

# input Queued: CNC(=O)[C@H](Cc1cccnc1)NC(=O)[C@H](CCN)NC(=O)[C@@H]1CCC(=O)NCCCC[C@@H]2NC(=O)CC[C@H](NC(=O)[C@H](CCC(N)=O)NC(=O)[C@H](Cc3c[nH]c4ccccc34)NC(=O)CNC2=O)C(=O)N[C@@H](Cc2ccc(OCCN)cc2)C(=O)N[C@@H](Cc2ccc3ccccc3c2)C(=O)N[C@@](C)(CC(C)C)C(=O)N1
# output 5

====

Test system human IL-23R (Homo sapiens, UniProt Q5VWK5), log10 of IC50 listed for each of the compounds.
Lab note - IC50 converted to log10 from values in nM.

# input For CNC(=O)[C@H](Cc1cccnc1)NC(=O)[C@H](CCN)NC(=O)[C@@H]1CCC(=O)NCC[C@@H]2NC(=O)CC[C@H](NC(=O)[C@H](CCC(N)=O)NC(=O)[C@H](Cc3c[nH]c4ccccc34)NC(=O)[C@H]([C@@H](C)O)NC2=O)C(=O)N[C@@H](Cc2ccc(OCCN)cc2)C(=O)N[C@@H](Cc2ccc3ccccc3c2)C(=O)N[C@@](C)(CC(C)C)C(=O)N1 , what is its reported log10 of IC50?
# output 0.15

# input Request: CC[C@H](C)[C@@H]1NC(=O)[C@@H]2CCCCNC(=O)CC[C@@H](C(=O)NCC(=O)N[C@H](Cc3cccnc3)C(N)=O)NC(=O)[C@](C)(C(C)C)NC(=O)[C@H](Cc3ccc4ccccc4c3)NC(=O)[C@@H](Cc3ccccc3)NC(=O)[C@H](CCC(=O)N2)NC(=O)[C@H](CCC(N)=O)NC(=O)[C@H](Cc2c[nH]c3ccccc23)NC(=O)[C@H](C(C)C)NC1=O
# output 2.99

# input # repeat for CNC(=O)[C@H](Cc1cccnc1)NC(=O)[C@H](CCN)NC(=O)[C@@H]1CCC(=O)NCCCC[C@@H]2NC(=O)CC[C@H](NC(=O)[C@H](CCC(N)=O)NC(=O)[C@H](Cc3c[nH]c4ccccc34)NC(=O)CNC2=O)C(=O)N[C@@H](Cc2ccc(OCCN)cc2)C(=O)N[C@@H](Cc2ccc3ccccc3c2)C(=O)N[C@@](C)(CC(C)C)C(=O)N1
# output 0.60

# input Then this compound: CNC(=O)[C@H](Cc1cccnc1)NC(=O)[C@H](CCN)NC(=O)[C@@H]1CCC(=O)NCCCC[C@@H]2C(=O)N[C@@H]([C@@H](C)O)C(=O)N[C@@H](Cc3c[nH]c4ccccc34)C(=O)N[C@@H](CCC(N)=O)C(=O)N[C@@H](CCc3cn2nn3)C(=O)N[C@@H](Cc2ccc(OCCN)cc2)C(=O)N[C@@H](Cc2ccc3ccccc3c2)C(=O)N[C@@](C)(CC(C)C)C(=O)N1
# output 0.28

# input Same read-out for CNC(=O)[C@H](Cc1cccnc1)NC(=O)[C@H](CCN)NC(=O)[C@@H]1CCC(=O)NCCCC[C@@H]2NC(=O)CC[C@H](NC(=O)[C@H](CCC(N)=O)NC(=O)[C@H](Cc3c[nH]c4ccccc34)NC(=O)CCN(C)C2=O)C(=O)N[C@@H](Cc2ccc(OCCN)cc2)C(=O)N[C@@H](Cc2ccc3ccccc3c2)C(=O)N[C@@](C)(CC(C)C)C(=O)N1 ?
# output -1.25

# input What do you get for CNC(=O)[C@H](Cc1cccnc1)NC(=O)[C@H](CCN)NC(=O)[C@@H]1CCC(=O)NCCCC[C@@H]2NC(=O)CC[C@H](NC(=O)[C@H](CCC(N)=O)NC(=O)[C@H](Cc3c[nH]c4ccccc34)NC(=O)CCNC2=O)C(=O)N[C@@H](Cc2ccncc2)C(=O)N[C@@H](Cc2ccc3ccccc3c2)C(=O)N[C@@](C)(CC(C)C)C(=O)N1 ?
# output -0.77

Data origin: patent EP4471048A1
